method: chemical genetic growth profiling, strain panel (AID 1159580);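 further: tested at 20 µM; growth read once vehicle control cultures reached saturation at 30 °C; 1 = growth at the plate median or of vehicle wells; lower values mean less growth of the strain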
experimentalParameters: S. cerevisiae deletion strains, growth OD, locus YJL092W, strain hpr5, active compounds read low
Among all 5,500 compounds or so, about 2,000 (36%) were called active. About 18% were inconclusive and are not listed. Some of the results follow. Where a SMILES comes first, the peptide text is derived from it. Side-chain parts run from the residue outwards. [ ]: non-standard residue; d: D form. The star is where a group is joined. X1 = CCC(C)C(N)C1=NC(C(=O)*)CS1; Orn = NCCC[CH](N)C(=O)O
attributeMeasured: normalized growth
One number for each entry.

Observe how each entry below is paired with its result.
[
  {
    "molecule": "CCC(C)C(N)C1=NC(C(=O)NC(CC(C)C)C(=O)NC(CCC(=O)O)C(=O)NC(C(=O)NCCCCC2NC(=O)C(CC(N)=O)NC(=O)C(CC(=O)O)NC(=O)C(Cc3cnc[nH]3)NC(=O)C(Cc3ccccc3)NC(=O)C(C(C)CC)NC(=O)C(CCCN)NC2=O)C(C)CC)CS1 (stereo not drawn) (cyclo(DNK([Ile-Glu-Leu-X1])[Orn]IFH); configuration not given here)",
    "normalized growth": 1
  },
  {
    "molecule": "CC1(C)C=Cc2cc3ccc(=O)oc3cc2O1",
    "normalized growth": 0.921
  },
  {
    "molecule": "NC[C@H]1O[C@H](O[C@H]2[C@H](O)[C@@H](O[C@H]3O[C@H](CO)[C@@H](O)[C@H](N)[C@H]3O)[C@H](N)C[C@@H]2N)[C@H](N)C[C@@H]1O",
    "normalized growth": 1.02
  },
  {
    "molecule": "COc1c2ccoc2cc2oc(C)cc(=O)c12",
    "normalized growth": 0.993
  },
  {
    "molecule": "COC(=O)C[C@H]1C(C)(C)[C@@H](O)[C@@H]2CC3=C4C=C(OC)O[C@@H](c5ccoc5)[C@]4(C)CCC3[C@@]1(C)C2=O (some centres not stated)",
    "normalized growth": 0.993
  }
]

Report normalized growth for each item below.
1. CCC1C(=O)OCC1Cc1cncn1C (configuration not stated)
2. COc1ccc2c(=O)ccoc2c1

[1.01, 1.02]
